Source: patent US20250163127A1

# study.target: CD28 (human) (UniProt P10747)
# assay.explanation: flow cytometry, transfected cells
measurement.type: MFI ratio to WT (ΔWT) (fold)

ICOSL-Fc N52L/N57V (Fc fusion) DTQEKEVRAMVGSDVELSCACPEGSRFDLNDVYVYWQTSESKTVVTYHIPQLSSLEVVDSRYRNRALMSPAGMLRGDFSLRLFNVTPQDEQKFHCLVLSQSLGFQEVLSVEVTLHVAANFSVPVVSAPHSPSQDELTFTCTSINGYPRPNVYWINKTDNSLLDQALQNDTVFLNMRGLYDVVSVLRIARTPSVNIGCCIENVLLQQNLTVGSQTGNDIGERDKITENPVSTGEKNAAT
2.5
ICOSL-Fc N52S/N57M/Q100S (Fc fusion) DTQEKEVRAMVGSDVELSCACPEGSRFDLNDVYVYWQTSESKTVVTYHIPQSSSLEMVDSRYRNRALMSPAGMLRGDFSLRLFNVTPQDEQKFHCLVLSSSLGFQEVLSVEVTLHVAANFSVPVVSAPHSPSQDELTFTCTSINGYPRPNVYWINKTDNSLLDQALQNDTVFLNMRGLYDVVSVLRIARTPSVNIGCCIENVLLQQNLTVGSQTGNDIGERDKITENPVSTGEKNAAT
6
ICOSL-Fc N52P/N57S/Q100G (Fc fusion) DTQEKEVRAMVGSDVELSCACPEGSRFDLNDVYVYWQTSESKTVVTYHIPQPSSLESVDSRYRNRALMSPAGMLRGDFSLRLFNVTPQDEQKFHCLVLSGSLGFQEVLSVEVTLHVAANFSVPVVSAPHSPSQDELTFTCTSINGYPRPNVYWINKTDNSLLDQALQNDTVFLNMRGLYDVVSVLRIARTPSVNIGCCIENVLLQQNLTVGSQTGNDIGERDKITENPVSTGEKNAAT
0.3
ICOSL-Fc N52A/N57H/Q100S (Fc fusion) DTQEKEVRAMVGSDVELSCACPEGSRFDLNDVYVYWQTSESKTVVTYHIPQASSLEHVDSRYRNRALMSPAGMLRGDFSLRLFNVTPQDEQKFHCLVLSSSLGFQEVLSVEVTLHVAANFSVPVVSAPHSPSQDELTFTCTSINGYPRPNVYWINKTDNSLLDQALQNDTVFLNMRGLYDVVSVLRIARTPSVNIGCCIENVLLQQNLTVGSQTGNDIGERDKITENPVSTGEKNAAT
7.1
ICOSL-Fc N52R/N57F/Q100T (Fc fusion) DTQEKEVRAMVGSDVELSCACPEGSRFDLNDVYVYWQTSESKTVVTYHIPQRSSLEFVDSRYRNRALMSPAGMLRGDFSLRLFNVTPQDEQKFHCLVLSTSLGFQEVLSVEVTLHVAANFSVPVVSAPHSPSQDELTFTCTSINGYPRPNVYWINKTDNSLLDQALQNDTVFLNMRGLYDVVSVLRIARTPSVNIGCCIENVLLQQNLTVGSQTGNDIGERDKITENPVSTGEKNAAT
5.7
ICOSL-Fc N52T/N57H/Q100A (Fc fusion) DTQEKEVRAMVGSDVELSCACPEGSRFDLNDVYVYWQTSESKTVVTYHIPQTSSLEHVDSRYRNRALMSPAGMLRGDFSLRLFNVTPQDEQKFHCLVLSASLGFQEVLSVEVTLHVAANFSVPVVSAPHSPSQDELTFTCTSINGYPRPNVYWINKTDNSLLDQALQNDTVFLNMRGLYDVVSVLRIARTPSVNIGCCIENVLLQQNLTVGSQTGNDIGERDKITENPVSTGEKNAAT
5
ICOSL-Fc N52C/N57E/Q100S (Fc fusion) DTQEKEVRAMVGSDVELSCACPEGSRFDLNDVYVYWQTSESKTVVTYHIPQCSSLEEVDSRYRNRALMSPAGMLRGDFSLRLFNVTPQDEQKFHCLVLSSSLGFQEVLSVEVTLHVAANFSVPVVSAPHSPSQDELTFTCTSINGYPRPNVYWINKTDNSLLDQALQNDTVFLNMRGLYDVVSVLRIARTPSVNIGCCIENVLLQQNLTVGSQTGNDIGERDKITENPVSTGEKNAAT
0.6
ICOSL-Fc N52G/N57V (Fc fusion) DTQEKEVRAMVGSDVELSCACPEGSRFDLNDVYVYWQTSESKTVVTYHIPQGSSLEVVDSRYRNRALMSPAGMLRGDFSLRLFNVTPQDEQKFHCLVLSQSLGFQEVLSVEVTLHVAANFSVPVVSAPHSPSQDELTFTCTSINGYPRPNVYWINKTDNSLLDQALQNDTVFLNMRGLYDVVSVLRIARTPSVNIGCCIENVLLQQNLTVGSQTGNDIGERDKITENPVSTGEKNAAT
3.1
ICOSL-Fc N52R/N57Y/Q100R (Fc fusion) DTQEKEVRAMVGSDVELSCACPEGSRFDLNDVYVYWQTSESKTVVTYHIPQRSSLEYVDSRYRNRALMSPAGMLRGDFSLRLFNVTPQDEQKFHCLVLSRSLGFQEVLSVEVTLHVAANFSVPVVSAPHSPSQDELTFTCTSINGYPRPNVYWINKTDNSLLDQALQNDTVFLNMRGLYDVVSVLRIARTPSVNIGCCIENVLLQQNLTVGSQTGNDIGERDKITENPVSTGEKNAAT
0.1
ICOSL-Fc N52S/N57L/Q100S (Fc fusion) DTQEKEVRAMVGSDVELSCACPEGSRFDLNDVYVYWQTSESKTVVTYHIPQSSSLELVDSRYRNRALMSPAGMLRGDFSLRLFNVTPQDEQKFHCLVLSSSLGFQEVLSVEVTLHVAANFSVPVVSAPHSPSQDELTFTCTSINGYPRPNVYWINKTDNSLLDQALQNDTVFLNMRGLYDVVSVLRIARTPSVNIGCCIENVLLQQNLTVGSQTGNDIGERDKITENPVSTGEKNAAT
4.8
